biological target: Hi-SiaP wild type (Haemophilus influenzae, UniProt P44542); construct: made in house; test: ITC binding of Neu5Ac to wild-type Hi-SiaP; details: 20 mM HEPES pH 8.0, 10 mM NaCl, 25°C
Sequence (P44542 24-329): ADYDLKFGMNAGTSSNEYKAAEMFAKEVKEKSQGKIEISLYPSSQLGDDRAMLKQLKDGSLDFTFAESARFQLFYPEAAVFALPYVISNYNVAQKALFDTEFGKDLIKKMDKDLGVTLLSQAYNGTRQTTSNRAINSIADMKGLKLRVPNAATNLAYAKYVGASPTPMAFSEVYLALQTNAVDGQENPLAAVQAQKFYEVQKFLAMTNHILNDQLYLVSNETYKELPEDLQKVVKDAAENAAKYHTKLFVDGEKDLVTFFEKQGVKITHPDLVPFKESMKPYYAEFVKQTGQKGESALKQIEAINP
QUANTITY_KIND: pKd
Numbers only, as −log10 of the molar value.

The reported value for CC(=O)NC1C(O)CC(O)(C(=O)O)OC1C(O)C(O)CO (stereo not shown) in terms of pKd is 7.78

---

Biological target: Vc-SiaP (Vibrio cholerae serotype O1, UniProt Q9KR64)
Sequence (Q9KR64 23-321): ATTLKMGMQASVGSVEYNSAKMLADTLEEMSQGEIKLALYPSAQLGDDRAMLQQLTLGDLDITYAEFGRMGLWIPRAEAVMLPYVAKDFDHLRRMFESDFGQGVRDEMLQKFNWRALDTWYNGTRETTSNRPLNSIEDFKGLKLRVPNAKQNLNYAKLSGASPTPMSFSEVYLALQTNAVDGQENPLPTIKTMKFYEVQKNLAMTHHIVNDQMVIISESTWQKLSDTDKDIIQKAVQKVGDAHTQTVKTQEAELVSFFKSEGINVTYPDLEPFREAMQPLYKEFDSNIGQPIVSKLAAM
Can you tell me Kd for the items I'm about to list?
Answers are plain numbers, in nM.

{"columns": ["MOLECULE", "Kd (nM)"],
 "data": [
  ["CC(=O)NC1C(O)CC(O)(C(=O)O)OC1C(O)C(O)CO (centres unmarked) [Neu5Ac]", 306]
]}

# ---- query molecule ----
The reported value for O=C(CO)N[C@H]1[C@H]([C@H](O)[C@H](O)CO)OC(O)(C(=O)O)C[C@@H]1O (some centres unmarked) [Neu5Gc] in terms of Kd is 1090

---

Kindly supply the reported pKd values for the records listed here.
biological target: Pm-SiaP (Pasteurella multocida); assay: ITC binding of sialic acids to Pm-SiaP; details: ITC, 20 mM HEPES pH 8.0, 10 mM NaCl, 25°C; read-out: K d
Give bare numbers, as −log10 of the molar value.

{"columns": ["COMPOUND", "pKd"],
 "data": [
  ["O=C(CO)N[C@H]1[C@H]([C@H](O)[C@H](O)CO)OC(O)(C(=O)O)C[C@@H]1O (some centres unmarked) [Neu5Gc]", 7.51]
]}

As a next step, examine the compound that follows.
Measured pKd, CC(=O)NC1C(O)CC(O)(C(=O)O)OC1C(O)C(O)CO (centres unmarked) [Neu5Ac] : 7.71

---

Parameter pKd, tested on Fn-SiaP (Fusobacterium nucleatum subsp. nucleatum), listed per item.
Numbers only, as −log10 of the molar value.

{"columns": ["COMPOUND", "pKd"],
 "data": [
  ["O=C(CO)N[C@H]1[C@H]([C@H](O)[C@H](O)CO)OC(O)(C(=O)O)C[C@@H]1O (some centres unmarked)", 7.34]
]}

// recorded pKd for CC(=O)NC1C(O)CC(O)(C(=O)O)OC1C(O)C(O)CO (centres unmarked) : 7.34
